polymerase ribozyme fitness (log ratio) listing for selected variants.
B1: TPR t1 (parent)
chain: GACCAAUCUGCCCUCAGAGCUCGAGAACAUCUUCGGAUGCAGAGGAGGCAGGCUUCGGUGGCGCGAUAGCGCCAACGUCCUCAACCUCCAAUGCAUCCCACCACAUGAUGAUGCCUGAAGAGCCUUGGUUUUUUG

Variants of: B1
Test: polymerase ribozyme fitness, log enrichment relative to wild type (log ratio); higher = more active; in vitro selection for triplet polymerase activity
Provide a numeric answer; units are not to be included.

Example entries and their recorded answers appear below.
INSERT INTO measurements (mutantname, observed) VALUES
  ('G61A A100C', -0.823),
  ('C20A G57C C62U', -1.88),
  ('A6G C28G C115G U125G', -3.74),
  ('G19U C56U C89G', -3.6),
  ('G63C C98U', -2.15),
  ('G17U U78A C79G C115U', -6.15),
  ('A84U C115A', -0.457),
  ('G10C G48C C102U', -2.77);

Looking up C101U G128A , I found its polymerase ribozyme fitness (log ratio) recorded as -2.16

Looking up A46C G48A C101U G110C , I found its polymerase ribozyme fitness (log ratio) recorded as -6.49

Looking up C28G G45U G52A G107C U109A C124A , I found its polymerase ribozyme fitness (log ratio) recorded as -5.94
